Each entry below carries its reported DcR3-His binding, % of irrelevant mAb.
Target: T1, human LIGHT (TNFSF14), full length, membrane-bound (214E allele) (human, UniProt O43557 1-240)
T1 construct: also called membrane LIGHT; human membrane LIGHT
T1 sequence (O43557 whole entry K214E): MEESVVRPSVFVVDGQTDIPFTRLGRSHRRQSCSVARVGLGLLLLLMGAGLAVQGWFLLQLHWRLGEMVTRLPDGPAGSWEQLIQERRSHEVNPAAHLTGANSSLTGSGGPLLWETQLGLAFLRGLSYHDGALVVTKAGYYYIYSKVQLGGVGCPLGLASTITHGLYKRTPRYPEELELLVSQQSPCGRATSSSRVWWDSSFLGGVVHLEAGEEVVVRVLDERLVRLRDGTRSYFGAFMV
Assay: DcR3-His (1 nM) competition, EL4-LIGHT, flow cytometry; 33.3 nM
Supply the numeric figure in %, leaving out any unit text.

# binder, test result
measured = [
    ("2E08 (antibody, human IgG4, V domains shown, chimeric human IgG4 (S-to-P, L-to-E at 248), human CL; also called Parental 2E08) VH: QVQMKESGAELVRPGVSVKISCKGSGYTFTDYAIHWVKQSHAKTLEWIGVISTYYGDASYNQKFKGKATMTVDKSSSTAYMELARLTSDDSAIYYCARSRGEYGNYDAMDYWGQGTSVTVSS VL: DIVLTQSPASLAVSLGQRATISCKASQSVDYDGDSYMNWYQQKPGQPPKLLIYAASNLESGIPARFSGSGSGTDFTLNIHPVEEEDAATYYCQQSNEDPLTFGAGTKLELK", 78.4),
]

// below: DcR3-His binding, % of irrelevant mAb requested for another binder
Incoming: Record request: DcR3-His binding, % of irrelevant mAb value, item 3C10 (antibody, human IgG4, V domains shown, chimeric human IgG4 (S-to-P, L-to-E at 248), human CL; also called Parental 3C10) VH: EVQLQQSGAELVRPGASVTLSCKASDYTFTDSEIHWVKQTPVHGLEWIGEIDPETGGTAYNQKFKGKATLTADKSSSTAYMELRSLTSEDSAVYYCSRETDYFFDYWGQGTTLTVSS VL: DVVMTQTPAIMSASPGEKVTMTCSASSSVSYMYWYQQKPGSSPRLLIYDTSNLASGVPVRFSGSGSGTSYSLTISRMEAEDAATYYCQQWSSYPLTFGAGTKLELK
Outgoing: 81.9

Taken from patent US20230035798A1.
